Biological target: T1, EGFR (recombinant human, BLI antigen) (human, UniProt P00533 25-645)
T1 construct: also called rh-EGFR; human EGFR
Assay: BLI (Octet) as in Example 1
Kindly state Kd for each of the entries shown.
Answers are plain numbers, in nM.

| Binder | Kd [nM] |
| --- | --- |
| pgEG5 (VHH, not shown: small tags and cut ends) VHH: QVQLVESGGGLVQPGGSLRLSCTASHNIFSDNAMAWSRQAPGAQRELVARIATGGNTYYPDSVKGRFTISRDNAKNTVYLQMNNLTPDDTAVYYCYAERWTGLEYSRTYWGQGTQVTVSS | 10.8 |

For each of the binders below, state Kd.
1. pgEG-SX57 (VHH, not shown: small tags and cut ends) VHH: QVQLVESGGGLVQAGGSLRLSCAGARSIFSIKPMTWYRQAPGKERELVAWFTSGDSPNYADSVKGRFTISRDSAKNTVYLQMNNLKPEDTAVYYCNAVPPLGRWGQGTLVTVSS
2. pgEG-SX40 (VHH, not shown: small tags and cut ends) VHH: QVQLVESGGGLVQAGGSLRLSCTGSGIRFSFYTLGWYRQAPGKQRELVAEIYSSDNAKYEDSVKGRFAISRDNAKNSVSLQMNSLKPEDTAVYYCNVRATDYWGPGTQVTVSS
3. pgEG1 (VHH, not shown: small tags and cut ends) VHH: QVQLVESGGGLVQPGGSLRLSCAASGIIFEAEAMGWVRQAPGKQRESVAFIGSGGNTNVGWSVKGRFTISRDNAKNTLYLQMNSLRPEDTAVYYCNTHPLRSWGQGTQVTVS

Out:
[1.87, 1.13, 15.6]
